Answer each item with its documented activation at 1 µM.
- study system: 5-HT2A receptor (Homo sapiens, UniProt P28223)
- Construct: host or cells: unnamed cell lines
- Sequence (P28223 whole entry): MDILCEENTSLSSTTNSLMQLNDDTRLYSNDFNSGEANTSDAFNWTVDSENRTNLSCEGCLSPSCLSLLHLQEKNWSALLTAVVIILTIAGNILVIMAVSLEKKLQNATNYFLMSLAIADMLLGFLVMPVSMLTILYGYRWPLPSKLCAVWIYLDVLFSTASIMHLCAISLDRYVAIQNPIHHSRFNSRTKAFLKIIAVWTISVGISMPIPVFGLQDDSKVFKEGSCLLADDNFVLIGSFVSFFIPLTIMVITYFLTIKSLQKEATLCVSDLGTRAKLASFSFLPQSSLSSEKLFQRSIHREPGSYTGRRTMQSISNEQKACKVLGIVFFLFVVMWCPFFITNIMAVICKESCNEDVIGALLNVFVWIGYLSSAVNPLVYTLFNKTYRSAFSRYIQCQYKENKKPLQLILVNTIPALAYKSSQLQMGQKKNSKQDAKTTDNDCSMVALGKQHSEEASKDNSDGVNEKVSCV
- assay details: Calcium mobilization assay, agonist format, 5-HT2A receptor
- Assay type: cell-based
- condition set: agonist mode, % activity relative to MAX control ligand (5-HT positive control), read-out: 5-HT2A agonist efficacy @ 1 μM
Please report the result as a number followed by the unit.

# value lookup — system 5-HT2A receptor (Homo sapiens, UniProt P28223), readout activation at 1 µM, item CC1(O)CCN(CCn2ccc3ccc(F)cc32)C1 (centres unmarked)
0%

Kindly state the measured activation at 1 µM obtained for CN(CCO)CCn1ccc2cc(F)c(F)cc21 with 5-HT2A receptor (Homo sapiens, UniProt P28223).
6.2%

Lookup: activation at 1 µM / 5-HT2A receptor (Homo sapiens, UniProt P28223) / CC1(O)CCN(CCc2c[nH]c3cc(F)c(F)cc23)C1 (centres unmarked)
1.9%

For the record CC1(O)CCN(CCn2ccc3cc(F)c(F)cc32)C1 (centres unmarked) , what value of activation at 1 µM is listed for 5-HT2A receptor (Homo sapiens, UniProt P28223)?
-0.1%

Please state recorded activation at 1 µM (tested on 5-HT2A receptor (Homo sapiens, UniProt P28223)) of OC1CCN(CCc2c[nH]c3ccc(F)cc23)C1 (centres unmarked)
46%

Item CN(CCn1ccc2cc(F)ccc21)CCS(C)(=O)=O with 5-HT2A receptor (Homo sapiens, UniProt P28223) - activation at 1 µM?
-0.8%

API: value(readout= activation at 1 µM, system= 5-HT2A receptor (Homo sapiens, UniProt P28223), query= CC1(O)CCN(CCc2c[nH]c3cc(F)ccc23)C1 (centres unmarked) )
-0.3%

# returns recorded activation at 1 µM (system: 5-HT2A receptor (Homo sapiens, UniProt P28223)) for OC1CCN(CCn2ccc3cc(F)c(F)cc32)C1 (centres unmarked)
2%
